assay: chemical genetic growth profiling, strain panel (AID 1159580);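 further: tested at 20 µM; growth read once vehicle control cultures reached saturation at 30 °C; 1 = growth at the plate median or of vehicle wells; lower values mean less growth of the strain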; details: S. cerevisiae deletion strains, growth OD, locus YDL028C, strain MPS1, active compounds read low
The whole screen tested about 5,500 compounds, of which about 2,000 (36%) were called active. Another 18% or so got no clear call; they are omitted. Some of the results follow.
quantity.name: normalized growth
Answers are plain numbers.

Data request, read-out normalized growth, for Cc1cccc(Cl)c1/C=N\NC(N)=S
0.88

Answer for every listed entry: what is its normalized growth? The entries follow.
1. S=C(N/N=C\c1ccc(Cl)cc1)N/N=C\c1ccc(Cl)cc1
2. CC(=O)c1sc(SCCS(=O)(=O)c2ccc(C)cc2)c2c1CC(C)(C)CC2=O
3. O=[N+]([O-])/C=C/c1ccsc1
4. O=C(NCCSCc1cccc(C(F)(F)F)c1)c1ccc(Cl)cc1
5. FC(F)(F)c1cccc(NNC(=S)Nc2ccccc2)c1
6. O=C(Nc1ccc(C(F)(F)F)cc1)N1CCN(c2ccnc3cc(Cl)ccc23)CC1
7. CC(C)c1ccc(NCC(O)CSc2ccccc2)cc1 (stereo not drawn)

[0.959, 0.98, 0.108, 0.947, 1, 0.981, 0.955]

Origin of values: PubChem BioAssay AID1159580
